Molecular target: T1, FZD8 CRD (Homo sapiens, UniProt Q9H461)
T1 construct: K31-D155; GPI anchor signal (C); expressed in transfected cells; host or cells: CHO cells, lentiviral pLenti-puro
T1 sequence (Q9H461 31-155): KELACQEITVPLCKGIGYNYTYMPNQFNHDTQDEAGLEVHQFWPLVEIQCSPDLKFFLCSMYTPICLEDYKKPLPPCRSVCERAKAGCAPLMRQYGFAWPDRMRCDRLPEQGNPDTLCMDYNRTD
Test: Immunofluorescence of anti-FZD5 Fab binding to CHO cells overexpressing Frizzled CRD
Set-up: key: −: no binding; +: very weak binder; ++: weak binder; +++: good binder; ++++: very good binder
parameter_measured: Immunofluorescence binding, Frizzled CRD overexpressed on CHO cells: FZD8

[
  {
    "molecule": "Fab-2918: anti-FZD5 Fab with antibody variable region Fv-2918; CDR SEQ ID NOs: 35, 36, 57, 96, 133, 169 (antibody, V domains shown) VH: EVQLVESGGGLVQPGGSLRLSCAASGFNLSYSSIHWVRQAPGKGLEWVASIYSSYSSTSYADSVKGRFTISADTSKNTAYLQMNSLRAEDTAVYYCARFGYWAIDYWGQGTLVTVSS VL: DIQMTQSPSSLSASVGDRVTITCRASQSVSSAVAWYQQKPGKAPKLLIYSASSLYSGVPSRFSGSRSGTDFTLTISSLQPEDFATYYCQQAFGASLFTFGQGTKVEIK",
    "obs_value": "+"
  },
  {
    "molecule": "Fab-2936: anti-FZD5 Fab with antibody variable region Fv-2936; CDR SEQ ID NOs: 35, 36, 75, 112, 151, 179 (antibody, V domains shown) VH: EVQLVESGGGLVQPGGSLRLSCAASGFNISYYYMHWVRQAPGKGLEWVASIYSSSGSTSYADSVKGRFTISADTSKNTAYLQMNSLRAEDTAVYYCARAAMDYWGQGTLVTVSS VL: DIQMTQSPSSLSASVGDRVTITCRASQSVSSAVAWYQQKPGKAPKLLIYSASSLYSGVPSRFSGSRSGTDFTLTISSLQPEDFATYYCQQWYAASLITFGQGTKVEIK",
    "obs_value": "+"
  },
  {
    "molecule": "Fab-2903: anti-FZD5 Fab with antibody variable region Fv-2903; CDR SEQ ID NOs: 35, 36, 42, 81, 118, 155 (antibody, V domains shown) VH: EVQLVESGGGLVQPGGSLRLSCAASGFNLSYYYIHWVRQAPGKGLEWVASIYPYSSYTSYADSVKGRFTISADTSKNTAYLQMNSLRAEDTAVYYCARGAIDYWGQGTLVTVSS VL: DIQMTQSPSSLSASVGDRVTITCRASQSVSSAVAWYQQKPGKAPKLLIYSASSLYSGVPSRFSGSRSGTDFTLTISSLQPEDFATYYCQQWGGGSSLFTFGQGTKVEIK",
    "obs_value": "+"
  },
  {
    "molecule": "Fab-2935: anti-FZD5 Fab with antibody variable region Fv-2935; CDR SEQ ID NOs: 35, 36, 74, 111, 150, 178 (antibody, V domains shown) VH: EVQLVESGGGLVQPGGSLRLSCAASGFNIYYYYIHWVRQAPGKGLEWVASIYPSSGSTSYADSVKGRFTISADTSKNTAYLQMNSLRAEDTAVYYCARAAFDYWGQGTLVTVSS VL: DIQMTQSPSSLSASVGDRVTITCRASQSVSSAVAWYQQKPGKAPKLLIYSASSLYSGVPSRFSGSRSGTDFTLTISSLQPEDFATYYCQQWYGGYALITFGQGTKVEIK",
    "obs_value": "+"
  },
  {
    "molecule": "Fab-2927: anti-FZD5 Fab with antibody variable region Fv-2927; CDR SEQ ID NOs: 35, 36, 66, 104, 142, 174 (antibody, V domains shown) VH: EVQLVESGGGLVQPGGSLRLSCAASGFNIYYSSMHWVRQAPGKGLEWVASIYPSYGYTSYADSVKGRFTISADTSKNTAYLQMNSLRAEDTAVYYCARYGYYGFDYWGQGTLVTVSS VL: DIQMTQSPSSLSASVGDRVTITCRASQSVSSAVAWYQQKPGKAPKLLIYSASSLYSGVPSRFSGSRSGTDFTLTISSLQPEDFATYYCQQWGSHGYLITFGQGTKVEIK",
    "obs_value": "+"
  },
  {
    "molecule": "Fab-2934: anti-FZD5 Fab with antibody variable region Fv-2934; CDR SEQ ID NOs: 35, 36, 73, 110, 149, 155 (antibody, V domains shown) VH: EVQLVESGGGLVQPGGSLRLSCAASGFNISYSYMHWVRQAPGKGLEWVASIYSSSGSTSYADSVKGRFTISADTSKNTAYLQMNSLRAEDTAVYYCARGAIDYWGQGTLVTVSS VL: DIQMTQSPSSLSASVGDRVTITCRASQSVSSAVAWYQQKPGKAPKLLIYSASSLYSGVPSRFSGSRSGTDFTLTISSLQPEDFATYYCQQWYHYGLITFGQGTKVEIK",
    "obs_value": "+"
  },
  {
    "molecule": "Fab-2923: anti-FZD5 Fab with antibody variable region Fv-2923; CDR SEQ ID NOs: 35, 36, 62, 100, 138, 162 (antibody, V domains shown) VH: EVQLVESGGGLVQPGGSLRLSCAASGFNLYYYYMHWVRQAPGKGLEWVASIYSSSGSTSYADSVKGRFTISADTSKNTAYLQMNSLRAEDTAVYYCARGAMDYWGQGTLVTVSS VL: DIQMTQSPSSLSASVGDRVTITCRASQSVSSAVAWYQQKPGKAPKLLIYSASSLYSGVPSRFSGSRSGTDFTLTISSLQPEDFATYYCQQWYGYSALITFGQGTKVEIK",
    "obs_value": "+"
  },
  {
    "molecule": "Fab-2925: anti-FZD5 Fab with antibody variable region Fv-2925; CDR SEQ ID NOs: 35, 36, 64, 102, 140, 172 (antibody, V domains shown) VH: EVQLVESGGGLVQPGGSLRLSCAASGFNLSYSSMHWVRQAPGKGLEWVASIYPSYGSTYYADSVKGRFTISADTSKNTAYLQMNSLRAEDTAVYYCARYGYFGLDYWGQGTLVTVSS VL: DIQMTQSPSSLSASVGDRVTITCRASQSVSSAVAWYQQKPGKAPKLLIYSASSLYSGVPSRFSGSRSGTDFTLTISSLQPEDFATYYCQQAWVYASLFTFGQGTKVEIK",
    "obs_value": "−"
  }
]
